Source of measurements: patent US4946854A

experiment: Bio-availability: blood plasma level after injection of calves; format: in vivo; conditions: bovine, plasma, 1 mg/kg, day 28, calf 3, 1 mg/kg injection

{"molecule": "Nc1ccc(F)c(C(=O)NC(=O)Nc2ccc(Cl)c(Oc3ncc(C(F)(F)F)cc3Cl)c2)c1F [Compound 1.1]", "concentration at 672 h (ng/mL)": 5}

====

test: Bio-availability: blood plasma level after injection of calves; type: in vivo; details: bovine, plasma, 1 mg/kg, day 14, calf 4, 1 mg/kg injection
assay.readout: concentration at 336 h (ng/mL)

{"structure.smiles.string": "Nc1ccc(F)c(C(=O)NC(=O)Nc2ccc(Cl)c(Oc3ncc(C(F)(F)F)cc3Cl)c2)c1F", "assay.readout": "concentration at 336 h", "unit.label": "ng/mL", "recorded.measurement": 27}
